Values from PubChem BioAssay (NCI)

Please respond with reported growth inhibition for every item in the list.
Test: NCI Yeast Anticancer Drug Screen. Data for the sgs1 mgt1 strain (AID 161);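 note: 0% = growth of cultures given vehicle only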
Settings: S. cerevisiae sgs1 mgt1 strain, at 50.0 µM, hits give high values
The panel holds about 79,000 compounds, 15% with a hit somewhere; the sample as a whole holds those more often.
Express it in %; write the number only.

Inquiry: growth inhibition lookup needed for `O=c1[nH]c(-c2cccnc2)nnc1-c1ccc(Cl)cc1` , thanks.
Reply text: 10.4

Inquiry: Moving on to the next compound: `CCCC(/C=N/Nc1ccc([N+](=O)[O-])cc1[N+](=O)[O-])=C\c1ccccc1`
Reply text: 10.6

Inquiry: Moving on to the next compound: `CCc1nnnn1-c1ccc(Br)cc1`
Reply text: 13.7

Inquiry: Moving on to the next compound: `Cc1[nH]n(-c2nc(-c3ccccc3)cc(=O)[nH]2)c(=O)c1CCO`
Reply text: -25.9

Inquiry: Moving on to the next compound: `O=C1CCc2cc3c(cc21)CC1(Cc2cc4c(cc2C1)CCCC4)C3`
Reply text: -22.2

Inquiry: Moving on to the next compound: CN1N=C(c2ccncc2)OC1c1ccc(C(F)(F)F)cc1 (stereo unspecified)
Reply text: 1.35

Inquiry: Moving on to the next compound: `O=C(O)CCC(=O)Nc1ccc(Cl)cc1`
Reply text: -0.05

Inquiry: Moving on to the next compound: CC1(CO)COC(c2ccccc2)=N1 (stereo unspecified)
Reply text: 4.55

Inquiry: Moving on to the next compound: `C=CCCCCCCCCC(=O)OC`
Reply text: 10.2

Inquiry: Moving on to the next compound: `CCCCCNN`
Reply text: -8.5

Inquiry: Moving on to the next compound: `CC(C)(C)c1cc(-c2cc(C(C)(C)C)[nH]n2)n[nH]1`
Reply text: 12.7

Inquiry: Moving on to the next compound: CCOC(=O)C(=O)SCC(NC(=O)OCc1ccccc1)C(=O)O (stereo unspecified)
Reply text: 11.7

Inquiry: Moving on to the next compound: `Cc1ccc(N=Nc2c(O)c(C(=O)O)cc3ccccc23)c(S(=O)(=O)O)c1`
Reply text: -7.5

Inquiry: Moving on to the next compound: `C=C(CN(C)C)C(=O)c1ccc(C(=O)C(=C)CN(C)C)cc1`
Reply text: 2.2

Inquiry: Moving on to the next compound: `CCOc1cc2c(cc1OC)c[n+](C)c1c3cc(OC)c(OC)cc3ccc21`
Reply text: 15

Inquiry: Moving on to the next compound: C=CCNC(=O)CN(CC(=O)OC)C1CCCCC1N(CC(=O)OC)CC(=O)OC (stereo unspecified)
Reply text: -1.8

Inquiry: Moving on to the next compound: `CC(=O)Oc1ccc(C(C)(C)C)cc1C`
Reply text: -9.45

Inquiry: Moving on to the next compound: `CCOc1c(N=Nc2ccccc2Cl)c(-c2ccccc2)nn1C(N)=S`
Reply text: -1.95

Inquiry: Moving on to the next compound: `Cc1c(Cl)cccc1NC(=O)Oc1ccc(F)cc1Cl`
Reply text: -2.3

Inquiry: Moving on to the next compound: `N#Cc1cc2c(cc1C#N)/C(=N\c1cccc(N)n1)N=C2Nc1cccc(N)n1`
Reply text: 0.2

Inquiry: Moving on to the next compound: `COc1c(O)c(O)c2c(c1O)C(=O)c1cc(C)cc(O)c1C2=O`
Reply text: -22.7

---

Assay: NCI Yeast Anticancer Drug Screen. Data for the cln2 rad14 strain (AID 165);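 note: 0% = growth equal to vehicle treated cultures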
Conditions: S. cerevisiae cln2 rad14 strain, at 50.0 µM, hits give high values
This is part of a sample that, as a whole, favours compounds with a hit. Of some 79,000 tested, about 15% had one in any assay. The source made the active and inactive calls. Cut-off read from the data, not from the text of the source: active = growth inhibition above about 70%; inactive = the rest.
Please respond with reported growth inhibition for every item in the list.

Inquiry: growth inhibition lookup needed for `CCOC(=O)c1c(C)c(=O)cnc2c(C#N)cnn12` , thanks.
Reply text: -33.2% (inactive)

Inquiry: Moving on to the next compound: `Cn1c2c(c(=O)n(C)c1=O)CCC(=O)N2`
Reply text: -32.6% (inactive)

Inquiry: Moving on to the next compound: `C[n+]1ccc(/C=C/c2c[nH]c3ccccc23)cc1`
Reply text: -1.75% (inactive)

Inquiry: Moving on to the next compound: CC1(C)CC(C(N)=O)C(=O)O1 (configuration not stated)
Reply text: -25.9% (inactive)

Inquiry: Moving on to the next compound: `COC(=O)/C=C1\C(=O)N(C(C)=O)c2ccccc21`
Reply text: 40.1% (inactive)

Inquiry: Moving on to the next compound: `CCOC1(OCC)C([N+](=O)[O-])=CC(=[N+]([O-])O)C=C1[N+](=O)[O-]`
Reply text: 3.75% (inactive)

Inquiry: Moving on to the next compound: `O=C(CCC(=O)Nc1cc(Cl)ccc1Cl)CC(=O)c1ccc([N+](=O)[O-])cc1`
Reply text: 13.8% (inactive)

Inquiry: Moving on to the next compound: OCC(O)c1ccccn1 (configuration not stated)
Reply text: -1.45% (inactive)

Inquiry: Moving on to the next compound: O=C1C2=Nc3ccccc3C(O)N2c2ccccc21 (configuration not stated)
Reply text: 47.4% (inactive)

Inquiry: Moving on to the next compound: `CC1=C(C#[N+][O-])C(C)(C)CCC1`
Reply text: 10.1% (inactive)

Inquiry: Moving on to the next compound: `COc1cc(C(=O)Nc2cccc3ccccc23)c(Br)c(OC)c1OC`
Reply text: 26.9% (inactive)

Inquiry: Moving on to the next compound: `COC(=O)C(Cc1ccc2c(c1)CCC2)Cc1ccc2c(c1)CCC2`
Reply text: -41.6% (inactive)

Inquiry: Moving on to the next compound: CCN1C(=O)c2cc(=O)[nH]c(O)c2C1C (configuration not stated)
Reply text: -20.4% (inactive)

Inquiry: Moving on to the next compound: O=S(O)CCCCSSCC(O)CO (configuration not stated)
Reply text: 63.5% (inactive)

Inquiry: Moving on to the next compound: `CN(C)CCCNc1ncnc2nc[nH]c12`
Reply text: -19.8% (inactive)

Inquiry: Moving on to the next compound: NC(=O)C1=CC2C3C=CC2(O)C(=O)OC3O1 (configuration not stated)
Reply text: 3.2% (inactive)

Inquiry: Moving on to the next compound: `CN(C)c1ccc(C=C2c3ccccc3-c3ccccc32)cc1`
Reply text: -80.9% (inactive)

---

Please respond with reported growth inhibition for every item in the list.
Experiment: NCI Yeast Anticancer Drug Screen. Data for the mlh1 rad18 strain (AID 175)
Conditions: S. cerevisiae mlh1 rad18 strain growth inhibition; at 50.0 µM; hits give high values
The panel holds about 79,000 compounds, 15% with a hit somewhere; the sample as a whole holds those more often.
Express it in %; write the number only.

Inquiry: growth inhibition lookup needed for `O=C(/C=C/c1ccc2c(c1)OCO2)NCc1ccco1` , thanks.
Reply text: -34.9

Inquiry: Moving on to the next compound: `Nc1ccccc1OCC(=O)Nc1c(N)ncnc1N`
Reply text: -3.8

Inquiry: Moving on to the next compound: CCCCCCCCCCCCCCCCCCN(C)CC(COC)OP(=O)([O-])OCC[N+](C)(C)C (stereo not drawn)
Reply text: 24.9

Inquiry: Moving on to the next compound: `CCCCOC(=O)/C(CC(=O)C=C(C)C)=N\NS(=O)(=O)c1ccc(C)cc1`
Reply text: -5.75

Inquiry: Moving on to the next compound: O=C1C2CCC(C2)C1CN1CCOCC1 (stereo not drawn)
Reply text: -7.35

Inquiry: Moving on to the next compound: CCCC(CN1CCCCC1)C(OC(=O)c1ccc(N)cc1)C(F)(F)F (stereo not drawn)
Reply text: 22.4

Inquiry: Moving on to the next compound: O=[N+]([O-])c1cc2c(cc1Br)C1C(C3C2C2(Cl)C(Cl)=C(Cl)C3(Cl)C2(Cl)Cl)C2(Cl)C(Cl)=C(Cl)C1(Cl)C2(Cl)Cl (stereo not drawn)
Reply text: 8.1

Inquiry: Moving on to the next compound: `CNc1ccc(CC(=O)O)cc1`
Reply text: 1.8

---

Experiment: NCI Yeast Anticancer Drug Screen. Data for the mec2-1 strain (AID 157)
Conditions: S. cerevisiae mec2-1 strain, at 50.0 µM, hits give high values
About 79,000 compounds went through this panel and 15% of them were active in at least one assay; those are over-represented in the sample as a whole.
readoutName: growth inhibition (%)
Express it in %; write the number only.

Inquiry: growth inhibition lookup needed for OCC1OC(n2cc(I)c3c(Cl)ncnc32)C(O)C1O (configuration not stated) , thanks.
Reply text: -15.4

Inquiry: Moving on to the next compound: `O=S1(=O)C(c2cccc(C(F)(F)F)c2)=C(O)c2cc3ccccc3nc21`
Reply text: 21

Inquiry: Moving on to the next compound: `Cc1cc2cccc(C)c2[nH]1`
Reply text: -4.75

Inquiry: Moving on to the next compound: `CCCCCCCCCC(=O)Oc1cccc2onc(C)c12`
Reply text: -43.5

Inquiry: Moving on to the next compound: OC(c1ccccc1)(c1c2ccccc2cc2ccccc12)C1CCC1 (configuration not stated)
Reply text: 20.1

Inquiry: Moving on to the next compound: `O=[N+]([O-])c1cc(Cl)cc2cc(Br)cnc12`
Reply text: 15.3

Inquiry: Moving on to the next compound: N=C(CNC(=O)OCc1ccccc1)N1CCCC1C(=O)O (configuration not stated)
Reply text: 2.8

Inquiry: Moving on to the next compound: CCOC(=O)CC1CCC(CCCCC2CCC(CC(=O)OCC)CC2)CC1 (configuration not stated)
Reply text: 44.5

Inquiry: Moving on to the next compound: COc1cc2c(c(OC)c1OC)-c1ccc(SCC3CCC4CC3C4(C)C)c(=O)cc1C(NC(C)=O)CC2 (configuration not stated)
Reply text: 97.3

Inquiry: Moving on to the next compound: `O=C(OCCCl)OCCCl`
Reply text: 18.9

Inquiry: Moving on to the next compound: `Cc1cc2c(=O)[nH]cnc2[nH]1`
Reply text: -1.35

Inquiry: Moving on to the next compound: `CN(C)c1ccc2c(c1)Cc1cc(NC(=O)CCC(=O)O)ccc1-2`
Reply text: 6.4
